Molecular target: T1, human PD-1-His (human, UniProt Q15116 25-170)
T1 construct: extracellular domain; not shown: His tag
T1 sequence (Q15116 25-170): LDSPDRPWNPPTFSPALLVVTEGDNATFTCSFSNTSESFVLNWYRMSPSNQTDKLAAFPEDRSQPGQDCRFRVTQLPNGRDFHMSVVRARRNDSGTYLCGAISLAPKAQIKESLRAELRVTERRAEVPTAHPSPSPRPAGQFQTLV
Assay: BLI (Octet ForteBio), antibody on ProA biosensor, PD-1-His in solution
parameter-measured: Kd (nM)
One number for each entry, in nM.

The cases that follow already have their Kd on record.
binder="humanized antibody 29C6-HZ2 (antibody, human IgG4 S228P, kappa, V domains shown) VH: QVQLVQSGVEVKKPGASVKVSCKTSGYTFTEYTIYWVRQAPGQGLEWIGGINPKNGATLYNQKFKVRATLTVDKSTTTAYMELKSLQFDDTAVYYCVRDYHGNSHDSMDYWGQGTTVTVSS VL: EIVLTQSPATLSLSPGERATLSCSASSSVSYMHWFQQKPGQAPRLLIYYTSNLASGVPARFSGSGSGTDYTLTISSLEPEDFAVYYCQQRSDYPPTFGGGTKVEIKR" test_value=1.65
binder="chimeric antibody 91D5-CH (antibody, human IgG4 S228P, kappa, V domains shown, Murine 91D5 variable regions fused to the IgG4 (S228P) heavy chain constant region and the human kappa constant region) VH: EVQLQQSGPELVKPGASVKISCRASGYTFTDYYMNWVKESHGKSLEWIGEINPKYGDTTYNQKFKDKATLTVDKSSSTASVELRSLTSEDSAVYYCAKGIRLFDSWGQGTTVTVSS VL: DIQLTQSPASLSASVGETVTITCRPSGNVHNYFAWYQQKQGKSPQLLVYNAKTLAEGVPSRFSGSGSGTQYSLKINSLQPEDFGTYYCHHYYTAPFTFGSGTKLEIKR" test_value=0.547

## Input What does the data say about its Kd? Entry: chimeric antibody 29C6-CH (antibody, human IgG4 S228P, kappa, V domains shown, Murine 29C6 variable regions fused to the IgG4 (S228P) heavy chain constant region and the human kappa constant region) VH: QVQLEESGPELVKPGASVKISCKTSGYTFTEYTIYWVKQSHGKSLEWIGGINPKNGATLYNQKFKVKATLTVDKSSSTAYMELRSLTSEDSAVYYCVRDYHGNSHDSMDYWGQGTSVTVSS VL: QIVLTQSPAIMSASPGEKVTITCSASSSVSYMHWFRQKPGTSPKLWIYYTSNLASGVPAHFSGSGSGTSYSLTISRMEAEDAATYYCQQRSDYPPTFGGGTKLEIKR
## Output 0.516
